# Test system: M. avium complex
# Method Notes: MIC in modified 7H10 broth against M. avium complex (Tables 3, 4)
# Type: cell-based, Mycobacterium avium
# Set-up: unit not given here
# Applied Conditions: Table 4; strain 101
What MIC, M. avium complex 101 was measured for each of the following?
Enter the number alone.

*Q* GET /values?readout=MIC, M. avium complex 101&item= NC(=O)c1cnc(Cl)cn1 [Compound 5-Chloro-PZA, 5-chloro-pyrazinamide, reference compound]
*A* 32

*Q* Any idea what MIC, M. avium complex 101 was measured for CCCN(CCC)CNC(=O)c1cnccn1 [Compound 9, dipropylaminomethyl-amide] ?
*A* 128

*Q* Give its MIC, M. avium complex 101 value. Item: CCCCN(CC)CNC(=O)c1cnccn1
*A* 128

*Q* For the compound CCCCN(C)CNC(=O)c1cnccn1 , what MIC, M. avium complex 101 is on record?
*A* 128

*Q* MIC, M. avium complex 101 lookup needed for CN(CNC(=O)c1cnccn1)Cc1ccccc1 [Compound 8, [(benzyl-methyl-amino)-methyl]-amide] , thanks.
*A* 128

###

For each entry below, report its MIC, M. tuberculosis ATCC 27294 value.
# Tested on: M. tuberculosis
# Method Notes: MIC in modified 7H10 broth against M. tuberculosis (Table 3)
# Assay type: cell-based, Mycobacterium tuberculosis
# Set-up: unit not given here
# Applied Conditions: ATCC 27294 (H37RV, PZA susceptible), pH 5.8
No unit in the answer, please; the number alone is enough.

*Q* Entry O=C(NCN1CCCC1)c1cnccn1 [Compound 1] : reported MIC, M. tuberculosis ATCC 27294 = ?
*A* 16

*Q* Would you kindly share the measured MIC, M. tuberculosis ATCC 27294 for NC(=O)c1cnc(Cl)cn1 [Compound 5-Chloro-PZA, 5-chloro-pyrazinamide, reference compound] ?
*A* 16

*Q* Which MIC, M. tuberculosis ATCC 27294 reading was recorded for the compound CCN(CC)CNC(=O)c1cnccn1 [Compound 2] ?
*A* 16

*Q* Which measured MIC, M. tuberculosis ATCC 27294 value corresponds to CCN(CC)CNC(=O)c1cnc(N(CC)CC)cn1 [Compound 17] ?
*A* 64

*Q* Look up MIC, M. tuberculosis ATCC 27294 for this compound: NC(=O)c1cnccn1 [PZA, Pyrazinamide]
*A* 16

###

# Tested on: M. avium complex
# Method Notes: MIC in modified 7H10 broth against M. avium complex (Tables 3, 4)
# Assay type: cell-based, Mycobacterium avium
# Applied Conditions: Table 4; strain 101
Experimental Readout: MIC, M. avium complex 101

*Q* I'm curious: which MIC, M. avium complex 101 was measured for NC(=O)c1cnccn1 [PZA, Pyrazinamide] tested on M. avium complex?
*A* >2048

*Q* Checklist item: MIC, M. avium complex 101 tested on M. avium complex, entry O=C(NCN1CCCC1)c1cnccn1 , value?
*A* >128

*Q* For the record CCCCN(CCCC)CNC(=O)c1cnccn1 , what value of MIC, M. avium complex 101 is listed for M. avium complex?
*A* >128
